Experimental target: T1, Sla1-2, P32790
T1 sequence (P32790 60-140, looked up): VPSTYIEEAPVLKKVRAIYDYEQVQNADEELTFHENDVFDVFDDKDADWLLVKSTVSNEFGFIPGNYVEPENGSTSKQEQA
Assay details: SPOT array
Assay conditions: median of control spots 712
Quantity kind: SPOT intensity

// below: answered binders
- FPGKKSPRLPHRNKK: 0
- SRQAIPPPVPNRPGG: 0
- LYEAMPPTLPHRDWK: 1
- NNFYRPLLRSVLVLL: 0
- YRRKSIPFAPHQITA: 0
- PSPSSSPPPIPKTAN: 0
- IKKRNKIRLPSGSPE: 0
- LPPPPPPPPPPPLPQ: 0
- EEEEEHPPLPARRKS: 0
- RPKRRAPPPVPKKPS: 2

I: GDHPKGPPPPPPPPD
II: TKFRISLGLPVGAIM
Pick one, I or II : lowest reported SPOT intensity. Your choice should be expressed through its label.
I
(I: 0, II: 9)

P: QQNRPLPQLPNRNNR
Q: PKMLPIPSKPTLFDL
Pick one, P or Q : lowest reported SPOT intensity. Your choice should be expressed through its label.
P

I: PKRRAPPPVPKKPSS
II: VRVKKRPLIRPLNSS
Pick one, I or II : lowest reported SPOT intensity. Your choice should be expressed through its label.
I
